Target: Metabotropic glutamate receptor 1 (Homo sapiens) (UniProt Q13255)
Sequence (Q13255 19-1194 limits assumed): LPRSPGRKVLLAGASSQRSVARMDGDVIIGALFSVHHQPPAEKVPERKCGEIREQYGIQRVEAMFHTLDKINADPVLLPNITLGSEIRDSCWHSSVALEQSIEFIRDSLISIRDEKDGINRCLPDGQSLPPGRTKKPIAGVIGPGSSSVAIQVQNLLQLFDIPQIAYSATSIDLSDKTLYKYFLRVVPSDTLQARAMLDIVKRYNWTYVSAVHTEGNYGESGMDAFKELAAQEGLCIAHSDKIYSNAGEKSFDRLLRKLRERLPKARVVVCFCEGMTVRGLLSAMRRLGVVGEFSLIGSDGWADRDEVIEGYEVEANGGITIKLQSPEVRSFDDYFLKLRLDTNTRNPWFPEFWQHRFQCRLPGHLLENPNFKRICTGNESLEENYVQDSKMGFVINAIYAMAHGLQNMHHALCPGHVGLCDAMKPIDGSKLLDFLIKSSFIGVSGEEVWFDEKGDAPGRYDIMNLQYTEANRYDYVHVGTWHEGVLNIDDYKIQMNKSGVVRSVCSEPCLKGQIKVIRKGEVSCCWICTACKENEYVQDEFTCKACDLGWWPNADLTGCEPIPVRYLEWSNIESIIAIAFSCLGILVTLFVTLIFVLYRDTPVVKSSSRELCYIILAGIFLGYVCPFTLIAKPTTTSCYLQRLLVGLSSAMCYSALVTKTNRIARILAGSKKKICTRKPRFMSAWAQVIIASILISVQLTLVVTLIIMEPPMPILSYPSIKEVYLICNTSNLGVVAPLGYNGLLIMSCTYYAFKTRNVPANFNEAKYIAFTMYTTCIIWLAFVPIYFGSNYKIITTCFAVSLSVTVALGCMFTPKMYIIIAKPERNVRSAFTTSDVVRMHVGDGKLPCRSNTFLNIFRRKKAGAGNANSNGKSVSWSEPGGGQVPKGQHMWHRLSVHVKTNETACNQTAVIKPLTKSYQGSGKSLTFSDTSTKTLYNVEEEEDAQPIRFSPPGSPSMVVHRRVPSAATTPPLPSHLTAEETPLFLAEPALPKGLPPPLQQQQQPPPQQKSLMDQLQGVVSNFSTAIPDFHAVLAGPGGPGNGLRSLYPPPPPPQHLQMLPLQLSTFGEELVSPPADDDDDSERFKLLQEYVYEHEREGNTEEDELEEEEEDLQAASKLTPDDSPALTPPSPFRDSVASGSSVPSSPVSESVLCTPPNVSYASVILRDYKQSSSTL
Assay: Antagonist activity at human mGluR1 receptor expressed in CHOK1 cells assessed as inhibition of glutamate-mediated internal calcium mobilization
Format: functional, cell-based
Settings: CHO-K1
Calls of active or inactive are those of the source. The calls are words filed in the database; no cut-off is given here.
Measured endpoint: Activity

Sample records with Activity:
Cc1cnnc(C#Cc2cccc(Br)c2)n1 inactive
COc1cccc(C#Cc2nncc(C)n2)c1 inactive
Cc1cccc(C#Cc2nncc(C)n2)c1 inactive
Cc1cnnc(C#Cc2cccc3ccccc23)n1 inactive
Cc1cnnc(C#Cc2cccc(C#N)c2)n1 inactive
Cc1cnnc(C#Cc2cccc(C(F)(F)F)c2)n1 inactive

Respond only with Activity recorded for Cc1cnnc(C#Cc2cccc(F)c2)n1
inactive

Could you please provide reported Activity for Cc1cnnc(C#Cc2ccc(Oc3ccccc3)cc2)n1 ? Thanks!
inactive

Please supply the value of reported Activity for the item Cc1cnnc(C#Cc2ccc(-c3ccccc3)cc2)n1
inactive

Output Activity of Cc1cnnc(C#Cc2cccc(Cl)c2)n1
inactive

Note Activity for the compound shown: Cc1cnnc(C#Cc2ccc(F)c(C)c2)n1
inactive

Report Activity for Cc1cnnc(C#Cc2ccccc2)n1
inactive

Give the reported Activity for this compound. Cc1ccc(C)c(C#Cc2nncc(C)n2)c1
inactive

###

Biological target: Metabotropic glutamate receptor 5 (Homo sapiens)
Sequence (P41594 whole entry): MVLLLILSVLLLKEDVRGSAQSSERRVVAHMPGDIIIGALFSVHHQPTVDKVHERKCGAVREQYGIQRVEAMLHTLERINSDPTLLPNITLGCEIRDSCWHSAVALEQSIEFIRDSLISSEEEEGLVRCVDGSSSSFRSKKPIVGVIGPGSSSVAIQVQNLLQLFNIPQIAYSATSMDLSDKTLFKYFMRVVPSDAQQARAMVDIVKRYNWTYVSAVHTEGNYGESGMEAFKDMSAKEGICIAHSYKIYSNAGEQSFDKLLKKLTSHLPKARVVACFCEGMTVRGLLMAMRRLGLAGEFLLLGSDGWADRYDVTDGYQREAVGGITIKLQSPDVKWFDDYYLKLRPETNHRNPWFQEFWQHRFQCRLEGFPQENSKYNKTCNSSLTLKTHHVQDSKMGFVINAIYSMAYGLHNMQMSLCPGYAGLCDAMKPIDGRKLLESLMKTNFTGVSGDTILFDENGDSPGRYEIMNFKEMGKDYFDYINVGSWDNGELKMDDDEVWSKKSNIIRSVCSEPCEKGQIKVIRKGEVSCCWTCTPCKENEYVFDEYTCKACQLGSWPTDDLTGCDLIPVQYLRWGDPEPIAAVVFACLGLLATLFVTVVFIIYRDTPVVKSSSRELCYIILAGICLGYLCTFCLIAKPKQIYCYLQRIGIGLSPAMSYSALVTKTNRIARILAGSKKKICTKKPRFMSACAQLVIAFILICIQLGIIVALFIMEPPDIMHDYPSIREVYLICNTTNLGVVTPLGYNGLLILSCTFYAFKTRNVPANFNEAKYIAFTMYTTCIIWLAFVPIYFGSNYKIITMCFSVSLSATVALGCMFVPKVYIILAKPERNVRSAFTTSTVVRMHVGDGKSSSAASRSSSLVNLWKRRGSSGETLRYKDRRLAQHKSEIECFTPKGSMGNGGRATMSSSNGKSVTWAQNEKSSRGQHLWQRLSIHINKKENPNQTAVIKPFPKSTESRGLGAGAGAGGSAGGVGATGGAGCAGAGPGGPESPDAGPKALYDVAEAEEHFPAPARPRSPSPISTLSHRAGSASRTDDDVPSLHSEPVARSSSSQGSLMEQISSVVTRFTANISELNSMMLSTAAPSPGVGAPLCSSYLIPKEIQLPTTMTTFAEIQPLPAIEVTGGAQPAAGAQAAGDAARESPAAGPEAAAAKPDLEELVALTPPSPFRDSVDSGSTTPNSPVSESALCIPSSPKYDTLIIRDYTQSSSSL
Test: Antagonist activity at human mGluR5 receptor expressed in CHOK1 cells assessed as inhibition of glutamate-mediated internal calcium mobilization
Type: functional, cell-based, CHO-K1
Conditions: read-out: IC50
pIC50: −log10 of the molar value.
Measured endpoint: pIC50

Cc1cnnc(C#Cc2ccc(-c3ccccc3)cc2)n1 6.29
COc1cccc(C#Cc2nncc(C)n2)c1 6.51
Cc1cnnc(C#Cc2ccccc2)n1 6.85
Cc1cnnc(C#Cc2cccc(C#N)c2)n1 7.28

(A) Cc1cnnc(C#Cc2cccc3ccccc23)n1
(B) Cc1cnnc(C#Cc2cccc(C(F)(F)F)c2)n1
(C) Cc1ccc(C)c(C#Cc2nncc(C)n2)c1
(D) Cc1cccc(C#Cc2nncc(C)n2)c1
Falling order of pIC50, please. Give the labels in the order specified.
D, B, C, A
(D: 8.64, B: 7.07, C: 5.72, A: 5.05)

###

Biological target: UniProtKB P41594
Assay: Antagonist activity at human mGluR5 receptor expressed in CHOK1 cells assessed as inhibition of glutamate-mediated internal calcium mobilization
Assay type: functional, cell-based, CHO-K1
Settings: read-out: IC50
pIC50: −log10 of the molar value.
Measured endpoint: pIC50

Here is how some molecules turned out for pIC50.
Cc1cnnc(C#Cc2ccc(F)c(C)c2)n1 6.88
Cc1cnnc(C#Cc2cccc(Br)c2)n1 8.22
Cc1cnnc(C#Cc2ccc(Oc3ccccc3)cc2)n1 7.10

(1) Cc1cnnc(C#Cc2cccc(Cl)c2)n1
(2) Cc1cnnc(C#Cc2cccc(F)c2)n1
Determine, for 1 and 2 , which has the greater value of pIC50. Could you answer with the label of the item you picked?
1
(1: 8.38, 2: 7.02)

src = ChEMBL document CHEMBL1145423
